TARGET SYSTEM: Luciferin 4-monooxygenase (Photinus pyralis) (UniProt P08659)
Sequence (P08659 whole entry, looked up): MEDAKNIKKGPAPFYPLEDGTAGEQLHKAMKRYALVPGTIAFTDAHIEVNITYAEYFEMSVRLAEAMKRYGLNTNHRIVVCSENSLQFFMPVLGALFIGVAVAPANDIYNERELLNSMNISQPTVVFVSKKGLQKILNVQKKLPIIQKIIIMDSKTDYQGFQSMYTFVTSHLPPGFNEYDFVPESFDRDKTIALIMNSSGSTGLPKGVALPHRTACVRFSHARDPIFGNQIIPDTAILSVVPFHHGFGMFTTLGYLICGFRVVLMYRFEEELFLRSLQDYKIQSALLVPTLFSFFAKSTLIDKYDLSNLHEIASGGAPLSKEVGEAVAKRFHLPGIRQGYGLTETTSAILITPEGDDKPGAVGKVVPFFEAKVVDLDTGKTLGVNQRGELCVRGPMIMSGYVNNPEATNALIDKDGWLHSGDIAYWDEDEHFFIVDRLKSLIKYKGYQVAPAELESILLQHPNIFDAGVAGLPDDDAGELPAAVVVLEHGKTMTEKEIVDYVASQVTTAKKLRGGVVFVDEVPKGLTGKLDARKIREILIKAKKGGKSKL
MEASUREMENT NOTES: qHTS profiling assay for firefly luciferase inhibitor/activator using purifed enzyme and Km concentrations of substrates (counterscreen for miR-21 project); also: nearly all actives have a fitted effect of over 55% in size
CONDITION SET: purified FLuc, luminescence inhibition; series mostly up to 57.5 µM
The whole screen tested about 360,000 compounds, of which about 25,000 (6.9%) were called active. Roughly 9% stayed inconclusive and do not appear here. Calls follow the shape of the dose curve; as a rule, active = well fitted inhibition curve with a large enough effect; inconclusive = small, poorly fitted or top-dose-only effect; inactive = flat fitted curve, though single readings scatter. The sample as a whole holds a higher share of actives than the screen did.
Possible outcomes: true (active), false (inactive)

molecule=CSCCNCc1cn(-c2ccc(F)cc2F)nc1-c1ccccc1C group=false
molecule=Cc1ccc(/C=N/NC(=O)Cn2ccc(C(F)(F)F)n2)o1 group=false
molecule=Cc1cccc(C2=N/C(=C/c3cccs3)C(=O)O2)c1 group=true
molecule=COc1ccc(/C=N/N=C2/C(=O)Nc3ccccc32)cc1O group=true
molecule=Fc1ccc(-c2csc(-c3ccc(C4SCCS4)cc3)n2)cc1F group=true
molecule="CN(Cc1ccccc1)CC(O)COc1ccc(CNCc2cc3ccccc3s2)cc1 (stereo not drawn)" group=false
molecule=Cc1ccc(/C=N/NC(=O)Cn2nc(C)c(Br)c2C)o1 group=false
molecule="CCC(C)Nc1oc(-c2ccc(COc3ccc(Cl)cc3)o2)nc1C#N (stereo not drawn)" group=false
molecule=COc1ccccc1CN1CCC(CNC(=O)c2cnn(-c3cccc(Cl)c3)c2C2CCN(C(=O)OC(C)(C)C)CC2)CC1 group=false
molecule=COc1ccc2nc(SCc3ccccc3)nc(C)c2c1 group=true
molecule="CCOC(=O)C1=C(c2ccccc2)Nc2ncnn2C1c1ccc(Cl)cc1 (stereo not drawn)" group=false
molecule=CN1/C(=C\C=C2\N=C(c3ccc(F)cc3)OC2=O)C(C)(C)c2ccccc21 group=false
molecule=Cn1cc(-c2ccccc2)cc(C#N)c1=O group=false
molecule=CCOC(=O)c1ccc2c(c1)N(Cc1cccc(OC)c1)C(=O)c1ccccc1S2(=O)=O group=false
molecule=Cn1c(CC(=O)Nc2ccccc2)nnc1SCC(=O)c1ccccc1 group=false
molecule=CCN(CC(=O)Nc1ccc(OC)cc1)C(=O)c1ccc(=O)n(Cc2ccccc2)n1 group=false
molecule="COc1ccccc1C(CNC(=O)c1ccc(C)c(S(=O)(=O)N2CCCCC2)c1)N(C)C (stereo not drawn)" group=false
molecule=O=C(CSc1ncnc2c1cnn2CCc1ccccc1)Nc1ccc(F)cc1 group=false
molecule=Cc1ccc(NC(=O)COc2ccc(/C=C3/NC(=O)NC3=O)cc2)cc1 group=false
molecule=Cc1ccc(C(=O)NCCNC(=O)c2cnccn2)cc1 group=false
molecule=CCS(=O)(=O)N1CCc2cc(C(=O)NCc3ccc(C)cc3)ccc21 group=false
molecule=CCOc1ccc(/C=N/NC(=O)CSc2ccccn2)cc1O group=false
molecule=Cc1cc(=O)c2cc(C(=O)Nc3cccc(C)c3C)ccc2[nH]1 group=false
molecule=CCN(CC)c1ccc(/C=N/NC(=O)c2cnccn2)c(O)c1 group=true
molecule=CC(C)c1ccc(/C=C2\NC(=O)NC2=O)cc1 group=true
molecule=COc1ccc(NC(=O)CSc2nc(NS(=O)(=O)c3ccc(C)cc3)cc(=O)[nH]2)cc1 group=false
molecule=Cc1ccc(-n2c(C)cc(C(=O)CSc3nnc4ccccn34)c2C)cc1 group=true
molecule=Cc1ccc(NC(=O)CSc2nc(CSc3ccc(C)cc3)cc(=O)[nH]2)cc1 group=true
molecule=CCOC(=O)c1cc2c(=O)n3ccccc3nc2n(CCCOC)c1=NC(=O)C(C)(C)Oc1ccc(Cl)cc1 group=false
molecule=CCc1ccccc1NC(=O)CSc1nc(C)c(C(=O)Nc2ccccc2)c(-c2ccc(Cl)cc2)c1C#N group=false
molecule=Cc1cccc(NC(=O)CSc2nc3c(c(=O)[nH]2)CCC3)c1C group=false
molecule=COc1ccc(-c2nnc3ccc(SCc4ccccc4)nn23)cc1 group=false
molecule="CCOC(=O)c1ccc(NC(=O)CC2C(=O)N(c3cccc(OC)c3)C(=O)N2C2CCCCC2)cc1 (stereo not drawn)" group=false
molecule=Cc1cc(C)cc(NC(=O)CCS(=O)(=O)c2cc3c4c(c2)CCN4C(=O)CC3)c1 group=false
molecule=Cc1cccc(-c2nc(SCC(=O)Nc3cc(C)on3)c3c(=O)n(C)c(=O)n(C)c3n2)c1 group=false
molecule=COc1cc(C(=O)Nc2cc(C(F)(F)F)ccc2-n2cncn2)cc(OC)c1OC group=false
molecule=CCOC(=O)Cc1csc(NC(NC(=O)OCC)(C(F)(F)F)C(F)(F)F)n1 group=false
molecule=O=C(CNC(=O)c1ccccc1Br)NNC(=O)c1cccs1 group=false
molecule="CC1CCCC(NC(=O)COC(=O)[C@@H]2CC(O)CN2S(=O)(=O)c2ccc3c(c2)OCCO3)C1C (stereo partly drawn)" group=false
molecule=CC(C)c1ccc(S(=O)(=O)N2CCC3(CC2)OCCO3)cc1 group=false
molecule=Cc1ccc(-c2nn(-c3cccc(F)c3)cc2CNCCc2ccncc2)o1 group=true
molecule="CCOc1ccc(NC(=O)CCC(=O)N2CC(C)Oc3ccc(C)cc32)cc1 (stereo not drawn)" group=false
molecule=O=C(Nc1c(C(=O)N2CCN(c3ccc(F)cc3)CC2)oc2ccccc12)c1ccco1 group=false
